Catalogue of sequences with associated P3_MyD88 Rank (before)
# MEASURED ON: MyD88^TIR (Homo sapiens, UniProt Q99836)
# Construct: MyD88 (residues 148–296); 6xHis; made in house; host or cells: E. coli BL21 (DE3)
# Sequence (Q99836 148-296): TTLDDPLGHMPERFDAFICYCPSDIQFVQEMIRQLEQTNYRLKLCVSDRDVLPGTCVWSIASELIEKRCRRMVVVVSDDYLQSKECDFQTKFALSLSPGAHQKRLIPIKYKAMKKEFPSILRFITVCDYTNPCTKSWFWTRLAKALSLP
# MEASUREMENT DESCRIPTION: T‐Surf phage library (P8 and P3) selection against MyD88^TIR, four rounds, NGS read counts
# Type: binding
# SETUP CONDITIONS: P3 library, selection against MyD88, rank before grouping
ASSAY READOUT: P3_MyD88 Rank (before)

| CHAIN SEQUENCE | RESULT VALUE |
| --- | --- |
| SSFREGLWRLLELSQN | 3171 |
| GWIREHLWPLLKQRMT | 1877 |
| NQWRSSPTAWASLSFA | 3474 |
| LSRVTSVHDARGLGGI | 2395 |
| YTALTIAAFIPFVIM | 1647 |
| SFFGINCVIICQRRS | 2934 |
| SSFREGPWRLLALSKK | 3216 |
| SSFLQGLWRLLELSKK | 3122 |
| YAFTGHLRKQSGEFG | 1491 |
| YASSSWALDELLRILY | 1556 |
| LKVESWRDALTAAANLSGW | 2475 |
| SSFRERLWRPVALSKK | 3227 |
| SNFRKGLSRLLELSKK | 3283 |
| HSEWACHELYFSHFWP | 2827 |
| SSFREGLWRLVYLSKK | 3160 |
| SLRKNVVSNLLEEFKR | 3079 |
| YLRWGYPWFGDRLRFA | 1562 |
| LGTHEISKEMKIFATI | 2323 |

====

# MEASURED ON: MAL^TIR (Homo sapiens, UniProt P58753)
# Construct: MAL (residues 79–221); 6xHis; made in house; host or cells: E. coli BL21 (DE3)
# Sequence (P58753 79-221): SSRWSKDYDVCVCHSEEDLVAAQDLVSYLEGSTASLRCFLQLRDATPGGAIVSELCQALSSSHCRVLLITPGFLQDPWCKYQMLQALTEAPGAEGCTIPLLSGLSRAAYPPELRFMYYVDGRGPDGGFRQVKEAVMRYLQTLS
# MEASUREMENT DESCRIPTION: T‐Surf phage library (P8 and P3) selection against MAL^TIR, four rounds, NGS read counts
# Type: binding
# SETUP CONDITIONS: P3 library, selection against MAL TIR; rank by count before grouping

| CHAIN SEQUENCE | P3_MAL Rank (before) |
| --- | --- |
| PNLRTKVLSYLMRTTT | 2674 |
| LQNQWKLALTKVAHLL | 2152 |
| KDPDNYKFAIHERDFP | 3542 |
| NQWRNALTAAASLSGR | 3364 |

====

# MEASURED ON: MyD88^TIR (Homo sapiens, UniProt Q99836)
# Construct: MyD88 (residues 148–296); 6xHis; made in house; host or cells: E. coli BL21 (DE3)
# MEASUREMENT DESCRIPTION: T‐Surf phage library (P8 and P3) selection against MyD88^TIR, four rounds, NGS read counts
# Type: binding
# SETUP CONDITIONS: P3_MyD88: rank by count after grouping
Catalogue of sequences with associated Rank (after)
ASSAY READOUT: Rank (after)

| CHAIN SEQUENCE | RESULT VALUE |
| --- | --- |
| GFLYQAFAREGLWRLLELSKK | 172 |
| YLKWGYPWFGIVCVL | 166 |
| LKVESWRQALEKAGN | 126 |
| NELVHVWSSKANSLVGQ | 186 |
| EWLREQLRSARKERLP | 442 |
| SSFREGLWCLRELSKK | 394 |
| YAFTGHLHRYLVQPGESVC | 456 |
| LNVEGWRQALEKAGKL | 131 |
| LKVESWHQAREKAGKL | 400 |
| AVDKKTDKIQTPRKNA | 468 |
| YAFTGHLQRYLVHRGV | 120 |
| DTKLKKGRKHCAGTAA | 454 |
| SSVRGGRWGLVELGKK | 455 |
| LVAHEISNNMKIFATI | 143 |
| YTALANSGCHTFRDND | 397 |
| LKVEGWRRALEKAGNL | 467 |
| AVDKETDKIQTPLKAQ | 390 |
| YTALTNSGFLSFRDTD | 428 |
| GLYDELFMTETDERKR | 439 |
| FLSYRSLEKRFGPIGP | 190 |
| KWFWDKLKYALPHRYEP | 128 |
| SSFREGLWRLQELSKT | 158 |
| RSFREGPWRLLELSKK | 414 |
| NELCMCGAAKRIAWW | 175 |
| SSFRQGLWRLRELSKK | 405 |
| SSFREALWRLLELSKN | 167 |
| NGHESEIIKEIWIPL | 407 |
| RSFRKGLWRLLELSNK | 431 |
| SSFLQHPWRLQKLSKK | 399 |
| SSGRECLWRLLELRKK | 415 |
| KNLFNELVHVWSSKANSLVG | 148 |
| EWIRTAASGAERTSA | 388 |
| KEVEGWRDALTKVACR | 109 |
| SSFREGVWRLLEVSKK | 151 |
| LVAHEITPSLFKAIKE | 161 |
| QYSDTLLEHTANFRM | 392 |
| EWIREQLRPALKAQ | 147 |
| NELVKVWSSKANRLVG | 393 |
| SELRVVDDGRVSPMAM | 464 |
| DHHLDLSRGKSIKPDILG | 435 |
| SSFREGLWRLPELSRK | 121 |
| KNLFNELVSKNIRTL | 103 |
| YRKWGYLRIWDRWRFA | 411 |
| SSLREGLWPLLELSKK | 94 |
| KERPFGAQRAEKCVP | 447 |
| YTALTNICFHTFRDND | 178 |
| SDLRVVEDGSVSPLEM | 104 |
| NQWRNSRTAAANLSGW | 122 |
| DHHLDLPSGKAIKPDILG | 107 |
| YSFTGQLHLYLIHRGV | 462 |
| NGHESEIIKEIVDTM | 436 |
| DTKLKKGESIAPELVL | 185 |
| KNLLNELVSKTIRTFM | 470 |
| EWIREHLRLALKERLP | 446 |
| NELVHEWSSKANSVVG | 452 |
| SELRVVDDGSVSPLVT | 182 |
| NERVHVWSSKAKSLVG | 443 |
| AVVRETQKIQPQRKNA | 466 |
| SSICEGLWRLLELSKK | 453 |
| YAFTGHLHRYLVQHCE | 169 |
| SSFREGLLRLLELNKK | 139 |
| LKWGDPYFCSKLRYPM | 403 |
| YTALTNSGCPTFCVIA | 444 |
| GSFRESLWRLLELSKK | 465 |
| ISYRQGRWRLLELSKK | 461 |
| GIFREGLWRLLELSKK | 105 |
| ARLPAICIVIWCSVA | 140 |
| DTALTNSGFHTLRDND | 450 |
| SSRRERLWRLLELSKK | 424 |
| LVAHEISKKMKIFRP | 413 |
| YAFTGHLHRDLVQRGL | 427 |
| AVEKETDKIQTPPKNA | 173 |
| SSFREGLWRLQALSKK | 458 |
| LKWGEPYCWSKLRYAM | 127 |

====

# MEASURED ON: MyD88^TIR (Homo sapiens)
# Construct: MyD88 (residues 148–296); 6xHis; made in house; host or cells: E. coli BL21 (DE3)
# MEASUREMENT DESCRIPTION: T‐Surf phage library (P8 and P3) selection against MyD88^TIR, four rounds, NGS read counts
# Type: binding
# SETUP CONDITIONS: P8 library, 4R selection against MyD88, rank before grouping
Please enter TRUE where P8_MyD88 Rank (before) is greater than or equal to 2000, and FALSE where it is lower.

| CHAIN SEQUENCE | ASSIGNED LABEL |
| --- | --- |
| WVFASNLETFWARLYY | FALSE |
| IQCRNATSPAALLIGR | TRUE |
| WFWQSLRNTIIMDNQA | FALSE |
| WDYASNMEQFWDPLYY | FALSE |
| DSVCLDRLLYSLHVTE | TRUE |
| LGYHWVVWEYFVGIED | TRUE |
| AWVGDYLLPNLEGPAG | TRUE |
| EYRNESKSVWDIINAI | TRUE |
| VQCGDPWCWEKLAYAM | TRUE |
| PQDLAWYYVRLVSLIL | TRUE |
| LGYQGIDGEYFVGIED | TRUE |
| DYASSWWALDELLRILY | TRUE |
| AWVWEYLLPNLVGPAG | TRUE |
| WFLEPLEKILQAHGTT | FALSE |
| IVQEQDGFWVRLIEAL | TRUE |
| DPQDLGWFYERLISQILK | TRUE |
| YLRADEFWTLEKLLTA | TRUE |
